Data provenance is ChEMBL document CHEMBL2380254.

- Test system: UO-31
- measurement_notes: Growth inhibition of human UO31 cells assessed as cell growth at 10 uM after 48 hrs by sulforhodamine B assay
- Format: functional
- condition_details: UO-31, 48 h, read-out: Activity
Listed compounds paired with reported growth at 10 µM

Look over these answered cases.
CC(C)=CCC/C(C)=C/CC/C(C)=C/CC[C@]1(C)CCc2c3c(cc(C)c2O1)OCN(CCCCCO)C3 :: 50.4%
CC(C)=CCC/C(C)=C/CC/C(C)=C/CC[C@]1(C)CCc2c3c(cc(C)c2O1)OCN(C1CCN(Cc2ccccc2)CC1)C3 :: 57.8%
CC(C)=CCC/C(C)=C/CC/C(C)=C/CC[C@]1(C)CCc2c3c(cc(C)c2O1)OCN(CCc1ccc(O)cc1)C3 :: 52.1%

Simply: "CC(C)=CCC/C(C)=C/CC/C(C)=C/CC[C@]1(C)CCc2c3c(cc(C)c2O1)OCN(CCCCCCCCCCCCO)C3" , UO-31, growth at 10 µM = 51.7%

###

- Test system: UACC-62
- measurement_notes: Growth inhibition of human UACC62 cells after 48 hrs by sulforhodamine B assay
- Format: functional
- condition_details: UACC-62, 48 h
Label Condition met when GI50 is strictly below 3 µM; at or above that, label Condition not met.

CC(C)=CCC/C(C)=C/CC/C(C)=C/CC[C@]1(C)CCc2c3c(cc(C)c2O1)OCN(CCCCCCCCO)C3 :: Condition not met
CC(C)=CCC/C(C)=C/CC/C(C)=C/CC[C@]1(C)CCc2c3c(cc(C)c2O1)OCN(CCCCO)C3 :: Condition not met
CC(C)=CCC/C(C)=C/CC/C(C)=C/CC[C@]1(C)CCc2c3c(cc(C)c2O1)OCN(C1CCN(Cc2ccccc2)CC1)C3 :: Condition met
CC(C)=CCC/C(C)=C/CC/C(C)=C/CC[C@]1(C)CCc2c3c(cc(C)c2O1)OCN(CCCO)C3 :: Condition met

For this molecule, is GI50 lower than 3 µM? "CC(C)=CCC/C(C)=C/CC/C(C)=C/CC[C@]1(C)CCc2c3c(cc(C)c2O1)OCN(CCc1ccc(O)cc1)C3"
Condition not met

For this molecule, is GI50 lower than 3 µM? "CC(C)=CCC/C(C)=C/CC/C(C)=C/CC[C@]1(C)CCc2c3c(cc(C)c2O1)OCN(CCCCCCO)C3"
Condition not met

For this molecule, is GI50 lower than 3 µM? "CC(C)=CCC/C(C)=C/CC/C(C)=C/CC[C@]1(C)CCc2c3c(c(C)c(C)c2O1)OCN(CCCCO)C3"
Condition not met

For this molecule, is GI50 lower than 3 µM? "CC(C)=CCC/C(C)=C/CC/C(C)=C/CC[C@]1(C)CCc2c3c(c(C)c(C)c2O1)OCN(CCCCCCCCO)C3"
Condition met

###

Listed compounds paired with reported GI50
- Tested on: U-251
- measurement_notes: Growth inhibition of human U251 cells after 48 hrs by sulforhodamine B assay
- Format: functional
- condition_details: U-251, 48 h
Your answer is read as µM, so omit the unit and give the number.

Look over these answered cases.
CC(C)=CCC/C(C)=C/CC/C(C)=C/CC[C@]1(C)CCc2c3c(cc(C)c2O1)OCN(CCCCCCO)C3 :: 0.536
CC(C)=CCC/C(C)=C/CC/C(C)=C/CC[C@]1(C)CCc2c3c(cc(C)c2O1)OCN(CCCCO)C3 :: 6.64
CC(C)=CCC/C(C)=C/CC/C(C)=C/CC[C@]1(C)CCc2c3c(c(C)c(C)c2O1)OCN(CCCCCCO)C3 :: 2.73
CC(C)=CCC/C(C)=C/CC/C(C)=C/CC[C@]1(C)CCc2c3c(cc(C)c2O1)OCN(C1CCN(Cc2ccccc2)CC1)C3 :: 1.51
CC(C)=CCC/C(C)=C/CC/C(C)=C/CC[C@]1(C)CCc2c3c(cc(C)c2O1)OCN(CCCCCO)C3 :: 5.71
CC(C)=CCC/C(C)=C/CC/C(C)=C/CC[C@]1(C)CCc2c3c(cc(C)c2O1)OCN(CCCO)C3 :: 1.72
COc1ccc(CCN2COc3cc(C)c4c(c3C2)CC[C@@](C)(CC/C=C(\C)CC/C=C(\C)CCC=C(C)C)O4)cc1OC :: 1.67
CC(C)=CCC/C(C)=C/CC/C(C)=C/CC[C@]1(C)CCc2c3c(c(C)c(C)c2O1)OCN(CCCCCO)C3 :: 5.71

Per the records, this compound ( "CC(C)=CCC/C(C)=C/CC/C(C)=C/CC[C@]1(C)CCc2c3c(c(C)c(C)c2O1)OCN(CCCCO)C3" ) has GI50 equal to 1.55

Per the records, this compound ( "CC(C)=CCC/C(C)=C/CC/C(C)=C/CC[C@]1(C)CCc2c3c(cc(C)c2O1)OCN(CCc1ccc(O)cc1)C3" ) has GI50 equal to 4.32

Per the records, this compound ( "CC(C)=CCC/C(C)=C/CC/C(C)=C/CC[C@]1(C)CCc2c3c(c(C)c(C)c2O1)OCN(CCCCCCCCO)C3" ) has GI50 equal to 2.61

Per the records, this compound ( "CC(C)=CCC/C(C)=C/CC/C(C)=C/CC[C@]1(C)CCc2c3c(cc(C)c2O1)OCN(CCCCCCCCO)C3" ) has GI50 equal to 0.544
